experimentalSystem: WIZ protein (HiBit-WIZ fusion protein) (Homo sapiens, UniProt O95785+Q96SW2)
Construct: expressed in transfected cells
Sequence (O95785 whole entry, the tested form may be a part): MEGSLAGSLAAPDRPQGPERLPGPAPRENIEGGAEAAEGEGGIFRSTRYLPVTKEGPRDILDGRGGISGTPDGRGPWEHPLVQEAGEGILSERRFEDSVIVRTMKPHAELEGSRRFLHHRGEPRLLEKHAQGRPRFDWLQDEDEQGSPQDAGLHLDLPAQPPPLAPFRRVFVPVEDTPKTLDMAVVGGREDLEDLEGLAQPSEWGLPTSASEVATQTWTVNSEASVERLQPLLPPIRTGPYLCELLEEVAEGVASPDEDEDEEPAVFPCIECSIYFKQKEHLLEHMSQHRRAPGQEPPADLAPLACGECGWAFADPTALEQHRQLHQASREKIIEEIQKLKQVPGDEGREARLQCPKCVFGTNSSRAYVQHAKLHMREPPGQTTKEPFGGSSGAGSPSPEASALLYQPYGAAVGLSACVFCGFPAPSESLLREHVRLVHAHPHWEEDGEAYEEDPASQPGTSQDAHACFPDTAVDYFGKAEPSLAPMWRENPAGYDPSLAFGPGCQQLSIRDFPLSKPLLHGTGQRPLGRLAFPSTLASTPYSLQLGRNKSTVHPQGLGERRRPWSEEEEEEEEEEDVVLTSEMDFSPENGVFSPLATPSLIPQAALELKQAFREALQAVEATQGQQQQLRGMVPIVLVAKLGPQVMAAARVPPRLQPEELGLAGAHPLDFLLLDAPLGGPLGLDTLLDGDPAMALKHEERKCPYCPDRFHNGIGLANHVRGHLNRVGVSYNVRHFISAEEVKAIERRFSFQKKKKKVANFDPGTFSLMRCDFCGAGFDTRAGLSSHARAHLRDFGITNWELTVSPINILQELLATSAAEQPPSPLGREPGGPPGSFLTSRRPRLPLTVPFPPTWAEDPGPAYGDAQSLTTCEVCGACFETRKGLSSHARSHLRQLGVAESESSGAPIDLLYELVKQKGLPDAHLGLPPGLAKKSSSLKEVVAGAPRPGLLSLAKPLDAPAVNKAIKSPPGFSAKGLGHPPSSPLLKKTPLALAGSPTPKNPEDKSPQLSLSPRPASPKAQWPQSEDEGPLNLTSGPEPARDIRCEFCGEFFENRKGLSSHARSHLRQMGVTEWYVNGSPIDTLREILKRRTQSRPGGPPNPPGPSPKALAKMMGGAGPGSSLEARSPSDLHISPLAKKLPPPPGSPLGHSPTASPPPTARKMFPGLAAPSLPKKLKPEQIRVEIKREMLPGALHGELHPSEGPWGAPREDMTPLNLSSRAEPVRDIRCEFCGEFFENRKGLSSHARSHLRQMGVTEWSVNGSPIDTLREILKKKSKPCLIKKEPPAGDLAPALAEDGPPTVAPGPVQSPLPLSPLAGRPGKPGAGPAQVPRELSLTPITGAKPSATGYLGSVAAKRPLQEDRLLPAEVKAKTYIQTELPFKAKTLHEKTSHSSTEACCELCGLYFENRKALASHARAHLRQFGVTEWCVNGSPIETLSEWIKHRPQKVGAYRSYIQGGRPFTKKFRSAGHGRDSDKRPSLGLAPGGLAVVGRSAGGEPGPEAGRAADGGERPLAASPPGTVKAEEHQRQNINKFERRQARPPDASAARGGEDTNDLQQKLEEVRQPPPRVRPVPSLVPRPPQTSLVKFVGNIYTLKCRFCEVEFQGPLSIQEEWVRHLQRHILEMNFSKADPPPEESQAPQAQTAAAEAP
Sequence (Q96SW2 whole entry, the tested form may be a part): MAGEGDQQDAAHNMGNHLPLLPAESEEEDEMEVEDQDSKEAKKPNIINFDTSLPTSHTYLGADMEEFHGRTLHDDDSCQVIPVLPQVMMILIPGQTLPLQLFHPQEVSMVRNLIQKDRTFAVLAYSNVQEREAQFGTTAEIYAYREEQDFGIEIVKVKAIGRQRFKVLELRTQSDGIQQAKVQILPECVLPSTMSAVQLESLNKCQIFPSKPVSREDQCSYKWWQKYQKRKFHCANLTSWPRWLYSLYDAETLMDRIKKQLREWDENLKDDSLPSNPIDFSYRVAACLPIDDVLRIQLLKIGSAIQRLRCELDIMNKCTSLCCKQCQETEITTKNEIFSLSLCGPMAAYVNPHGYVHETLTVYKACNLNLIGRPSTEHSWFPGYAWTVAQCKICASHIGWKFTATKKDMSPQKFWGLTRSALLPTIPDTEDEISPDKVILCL
Sequence (Q16531 whole entry partner, the tested form may be a part): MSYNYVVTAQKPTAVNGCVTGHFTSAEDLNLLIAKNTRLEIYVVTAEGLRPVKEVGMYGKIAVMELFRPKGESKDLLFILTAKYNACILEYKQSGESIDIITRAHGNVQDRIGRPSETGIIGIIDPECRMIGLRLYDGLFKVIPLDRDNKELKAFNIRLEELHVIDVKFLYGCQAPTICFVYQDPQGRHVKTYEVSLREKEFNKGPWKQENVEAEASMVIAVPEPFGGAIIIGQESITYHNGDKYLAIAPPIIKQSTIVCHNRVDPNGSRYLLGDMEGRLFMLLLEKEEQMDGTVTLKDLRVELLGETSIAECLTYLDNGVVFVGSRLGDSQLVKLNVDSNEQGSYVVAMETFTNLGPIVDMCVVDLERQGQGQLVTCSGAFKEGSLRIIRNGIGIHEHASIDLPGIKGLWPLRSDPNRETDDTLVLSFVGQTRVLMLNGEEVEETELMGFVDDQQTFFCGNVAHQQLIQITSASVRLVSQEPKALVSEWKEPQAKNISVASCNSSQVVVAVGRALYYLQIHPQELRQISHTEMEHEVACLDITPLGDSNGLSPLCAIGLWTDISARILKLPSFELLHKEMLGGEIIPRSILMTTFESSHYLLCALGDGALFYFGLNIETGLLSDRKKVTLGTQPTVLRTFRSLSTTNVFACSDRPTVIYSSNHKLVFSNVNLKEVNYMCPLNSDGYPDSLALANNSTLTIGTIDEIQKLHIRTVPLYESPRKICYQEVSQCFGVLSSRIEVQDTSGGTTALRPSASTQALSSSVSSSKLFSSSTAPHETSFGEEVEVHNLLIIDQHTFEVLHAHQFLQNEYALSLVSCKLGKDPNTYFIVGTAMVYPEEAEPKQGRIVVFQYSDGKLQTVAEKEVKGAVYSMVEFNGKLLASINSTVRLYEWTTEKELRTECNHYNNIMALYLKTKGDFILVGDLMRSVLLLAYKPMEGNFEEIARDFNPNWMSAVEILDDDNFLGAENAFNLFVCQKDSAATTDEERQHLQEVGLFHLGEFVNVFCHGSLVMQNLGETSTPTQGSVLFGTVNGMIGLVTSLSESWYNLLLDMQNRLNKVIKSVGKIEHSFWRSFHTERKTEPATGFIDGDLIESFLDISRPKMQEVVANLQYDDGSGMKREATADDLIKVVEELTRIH
protocolDetails: Quantification of WIZ protein levels in HiBit tag fusion protein assay (WIZ HiBit assay in 293T cells)
Type: cell-based
measurementConditions: WIZ HiBit assay in 293T cells; 10-point, 5-fold dose response, highest concentration 25 μM, about 18 hours; read-out: WIZ AC50
Procedure: The HiBit system from Promega was used to develop high-throughput and quantitative assays to measure changes in WIZ protein levels in response to compounds. […] The complementary fragment of Nanoluciferase (known as LgBit, from Promega), was added to the HiBit tag to form an active Nanoluciferase enzyme whose activity can be precisely measured. In this way, the levels of a fusion protein with the HiBit tag can be quantified in cell lysates. […]
observationType: DC50 (nM)

(1) O=C1CCN(c2cnn3ccc(CC4CCN(Cc5cncc(F)c5)CC4)cc23)C(=O)N1
(2) O=C1CCN(c2cnn3ccc(CN4CCN(CC56CC7CC(CC(C7)C5)C6)CC4)cc23)C(=O)N1
Req: Of 1 and 2 , whose reported DC50 is numerically smaller? Answer by stating the label of the chosen item.
Resp: 2
(2: 3 nM, 1: 31 nM)

###

experimentalSystem: WIZ protein (HiBit-WIZ fusion protein) (Homo sapiens, UniProt O95785+Q96SW2)
Construct: expressed in transfected cells
protocolDetails: Quantification of WIZ protein levels in HiBit tag fusion protein assay (WIZ HiBit assay in 293T cells)
Type: cell-based
measurementConditions: HEK-293T, 100 − Amax, at 25 uM; 293T cells; read-out: % degradation of WIZ (100 − Amax)
observationType: Dmax at 25 µM (%)

Some entries whose results are on file:
{"compound": "O=C1CCN(c2cnn3ccc(CC4CCN(CC5(F)CCCCC5)CC4)cc23)C(=O)N1 [Example 107]", "experimentalSystem": "WIZ protein (HiBit-WIZ fusion protein) (Homo sapiens, UniProt O95785+Q96SW2)", "unitDescriptor": "%", "Dmax at 25 µM": 78}
{"compound": "C[C@H]1CN(Cc2ccn3ncc(N4CCC(=O)NC4=O)c3c2)CCN1C1CC2(C1)CN(S(C)(=O)=O)C2 [Example 337]", "experimentalSystem": "WIZ protein (HiBit-WIZ fusion protein) (Homo sapiens, UniProt O95785+Q96SW2)", "unitDescriptor": "%", "Dmax at 25 µM": 83}
{"compound": "O=C1CCN(c2cnn3ccc(CC4CCN(S(=O)(=O)NC5CCCC5)CC4)cc23)C(=O)N1 [Example 298]", "experimentalSystem": "WIZ protein (HiBit-WIZ fusion protein) (Homo sapiens, UniProt O95785+Q96SW2)", "unitDescriptor": "%", "Dmax at 25 µM": 51}
{"compound": "O=C1CCN(c2cnn3ccc(CN4CCN(CCC5CCCCC5)CC4)cc23)C(=O)N1 [Example 187]", "experimentalSystem": "WIZ protein (HiBit-WIZ fusion protein) (Homo sapiens, UniProt O95785+Q96SW2)", "unitDescriptor": "%", "Dmax at 25 µM": 80}
{"compound": "CC(C)CN1CC[C@@H](Cc2ccn3ncc(-n4ccc(=O)[nH]c4=O)c3c2)C[C@@H]1C [Example 346]", "experimentalSystem": "WIZ protein (HiBit-WIZ fusion protein) (Homo sapiens, UniProt O95785+Q96SW2)", "unitDescriptor": "%", "Dmax at 25 µM": 87}
{"compound": "O=C1CCN(c2cnn3ccc(CC4CCN(Cc5cccnc5)C4)cc23)C(=O)N1 (stereo not drawn) [Example 129]", "experimentalSystem": "WIZ protein (HiBit-WIZ fusion protein) (Homo sapiens, UniProt O95785+Q96SW2)", "unitDescriptor": "%", "Dmax at 25 µM": 35}
{"compound": "O=C1CCN(c2cnn3ccc(CN4CCN(CC5CCCCCC5)CC4)cc23)C(=O)N1 [Example 158]", "experimentalSystem": "WIZ protein (HiBit-WIZ fusion protein) (Homo sapiens, UniProt O95785+Q96SW2)", "unitDescriptor": "%", "Dmax at 25 µM": 82}
{"compound": "C[C@H]1C[C@H](Cc2ccn3ncc(N4CCC(=O)NC4=O)c3c2)CCN1S(=O)(=O)NC1CCCC1 [Example 293]", "experimentalSystem": "WIZ protein (HiBit-WIZ fusion protein) (Homo sapiens, UniProt O95785+Q96SW2)", "unitDescriptor": "%", "Dmax at 25 µM": 76}

(a) CC(C)(C1CCOCC1)N1CCN(Cc2ccn3ncc(N4CCC(=O)NC4=O)c3c2)CC1 [Example 182]
(b) CC(C)CN1CCN(Cc2ccn3ncc(N4CCC(=O)NC4=O)c3c2)C(=O)C1 [Example 254]
Req: Which gives the smaller Dmax at 25 µM number: a or b ? Answer by quoting the chosen item's label.
Resp: b
(b: 0%, a: 67%)

Sourced from patent US11787785B2
